- target_desc: Serine/threonine-protein kinase 33 (Homo sapiens) (UniProt Q9BYT3)
- Sequence (Q9BYT3 whole entry, looked up): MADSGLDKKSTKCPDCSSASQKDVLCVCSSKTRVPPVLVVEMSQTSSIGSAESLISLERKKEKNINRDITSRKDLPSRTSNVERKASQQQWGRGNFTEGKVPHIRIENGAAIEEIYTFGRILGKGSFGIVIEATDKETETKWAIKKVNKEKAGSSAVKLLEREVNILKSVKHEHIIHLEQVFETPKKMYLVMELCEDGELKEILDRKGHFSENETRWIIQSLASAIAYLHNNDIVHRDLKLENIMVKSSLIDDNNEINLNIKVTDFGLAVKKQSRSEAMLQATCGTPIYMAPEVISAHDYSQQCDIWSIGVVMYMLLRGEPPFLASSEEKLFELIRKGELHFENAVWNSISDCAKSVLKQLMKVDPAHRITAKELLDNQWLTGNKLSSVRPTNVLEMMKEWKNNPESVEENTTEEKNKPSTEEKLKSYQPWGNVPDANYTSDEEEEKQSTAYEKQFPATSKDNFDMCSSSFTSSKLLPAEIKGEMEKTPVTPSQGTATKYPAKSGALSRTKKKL
- protocol: inhibitors of purified STK33 kinase, primary screen, biochemical, ADP-Glo luminescence, homogeneous, cell-free (AID 2661)
- cond: purified STK33, MBP phosphorylation, at 10 µM
Out of some 320,000 compounds screened, about 240 (0.075%) were called active.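 How the source made its calls: active means inhibition at or above 25%, using the most active replicate where run in duplicate; inactive means inhibition below 25%.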 The sample as a whole holds a higher share of actives than the screen did.
Classes used: active, inactive

[
  {
    "compound": "Cc1cccc(NC(=S)Nc2ccc3cn[nH]c3c2)c1",
    "target_desc": "Serine/threonine-protein kinase 33 (Homo sapiens) (UniProt Q9BYT3)",
    "assigned_class": "inactive"
  },
  {
    "compound": "C=CCC[C@@H](Cc1ccc(F)cc1)C(=O)OC[C@H](Cc1c[nH]c2ccccc12)NC(=O)[C@@H](CC=C)CC(=O)N(CCO)Cc1ccccc1",
    "target_desc": "Serine/threonine-protein kinase 33 (Homo sapiens) (UniProt Q9BYT3)",
    "assigned_class": "inactive"
  },
  {
    "compound": "CCOC(=O)COc1cc(OCC(=O)OCC)c2c(=O)cc(-c3ccccc3)oc2c1",
    "target_desc": "Serine/threonine-protein kinase 33 (Homo sapiens) (UniProt Q9BYT3)",
    "assigned_class": "inactive"
  },
  {
    "compound": "Cc1noc(C)c1NC(=O)Nc1ccc2c(c1)C(=O)N([C@H](C)CO)C[C@H](C)[C@@H](CN(C)S(=O)(=O)c1cn(C)cn1)O2",
    "target_desc": "Serine/threonine-protein kinase 33 (Homo sapiens) (UniProt Q9BYT3)",
    "assigned_class": "inactive"
  },
  {
    "compound": "C[C@H](CO)N1C[C@H](C)[C@H](CN(C)C(=O)Nc2ccc(C(F)(F)F)cc2)Oc2c(NC(=O)c3ccncc3)cccc2C1=O",
    "target_desc": "Serine/threonine-protein kinase 33 (Homo sapiens) (UniProt Q9BYT3)",
    "assigned_class": "inactive"
  },
  {
    "compound": "N=c1c2c(-c3ccccc3)c(-c3ccccc3)oc2ncn1Cc1ccco1",
    "target_desc": "Serine/threonine-protein kinase 33 (Homo sapiens) (UniProt Q9BYT3)",
    "assigned_class": "active"
  },
  {
    "compound": "O=C1N[C@@H](c2ccccc2)COC(=O)[C@H](Cc2ccc(F)cc2)C/C=C\\C[C@@H]1CC(=O)N(CCO)Cc1ccccc1",
    "target_desc": "Serine/threonine-protein kinase 33 (Homo sapiens) (UniProt Q9BYT3)",
    "assigned_class": "inactive"
  },
  {
    "compound": "CCOC(=O)[C@H]1[C@H]2COc3cc(OC)ccc3[C@@H]2N2C(=O)CN(Cc3ccc(Cl)cc3)C(=O)[C@@]12C",
    "target_desc": "Serine/threonine-protein kinase 33 (Homo sapiens) (UniProt Q9BYT3)",
    "assigned_class": "inactive"
  },
  {
    "compound": "COc1c(O)cc2oc(-c3ccc(O)c(O)c3)cc(=O)c2c1O",
    "target_desc": "Serine/threonine-protein kinase 33 (Homo sapiens) (UniProt Q9BYT3)",
    "assigned_class": "active"
  },
  {
    "compound": "CC1CC(=NNC(=O)C2COc3ccccc3O2)CC(C)(C)C1 (stereo unspecified)",
    "target_desc": "Serine/threonine-protein kinase 33 (Homo sapiens) (UniProt Q9BYT3)",
    "assigned_class": "inactive"
  },
  {
    "compound": "COc1cc(/C=C/C(=O)OCC(=O)NCCCc2ccccc2)ccc1O",
    "target_desc": "Serine/threonine-protein kinase 33 (Homo sapiens) (UniProt Q9BYT3)",
    "assigned_class": "inactive"
  },
  {
    "compound": "COc1cc(OC)cc(C(=O)NNC(=O)Cc2cccs2)c1",
    "target_desc": "Serine/threonine-protein kinase 33 (Homo sapiens) (UniProt Q9BYT3)",
    "assigned_class": "inactive"
  },
  {
    "compound": "O=C1CCC/C=C\\C[C@@H](CC(=O)N(CCO)Cc2ccccc2)C(=O)NCCO1",
    "target_desc": "Serine/threonine-protein kinase 33 (Homo sapiens) (UniProt Q9BYT3)",
    "assigned_class": "inactive"
  },
  {
    "compound": "COc1ccc(S(=O)(=O)N2CCN(CC(=O)N3CCOCC3)CC2)cc1OC",
    "target_desc": "Serine/threonine-protein kinase 33 (Homo sapiens) (UniProt Q9BYT3)",
    "assigned_class": "inactive"
  },
  {
    "compound": "O=C(COC(=O)c1cccnc1Cl)NC12CC3CC(CC(C3)C1)C2",
    "target_desc": "Serine/threonine-protein kinase 33 (Homo sapiens) (UniProt Q9BYT3)",
    "assigned_class": "inactive"
  },
  {
    "compound": "Cc1cccc(C(=O)OCC(=O)NC(C)C2CC3CCC2C3)c1O (stereo unspecified)",
    "target_desc": "Serine/threonine-protein kinase 33 (Homo sapiens) (UniProt Q9BYT3)",
    "assigned_class": "inactive"
  },
  {
    "compound": "COC(=O)[C@]1(Cc2ccccc2)N[C@H](CN(C)S(=O)(=O)c2ccc(F)cc2)[C@@H]2C(=O)N(Cc3ccccc3)C(=O)[C@@H]21",
    "target_desc": "Serine/threonine-protein kinase 33 (Homo sapiens) (UniProt Q9BYT3)",
    "assigned_class": "inactive"
  },
  {
    "compound": "Cc1ccc(C2(C)NC(=O)N(CC(=O)N3CC(=O)Nc4ccccc43)C2=O)cc1 (stereo unspecified)",
    "target_desc": "Serine/threonine-protein kinase 33 (Homo sapiens) (UniProt Q9BYT3)",
    "assigned_class": "inactive"
  },
  {
    "compound": "C=CC[C@@H](CC(=O)N[C@H](CO)Cc1ccccc1)C(=O)N[C@@H](COC(=O)[C@@H](CC=C)Cc1ccc(F)cc1)Cc1c[nH]c2ccccc12",
    "target_desc": "Serine/threonine-protein kinase 33 (Homo sapiens) (UniProt Q9BYT3)",
    "assigned_class": "inactive"
  },
  {
    "compound": "CCN(c1ccccc1)S(=O)(=O)c1ccc(C(=O)Nc2ccccc2OC)cc1",
    "target_desc": "Serine/threonine-protein kinase 33 (Homo sapiens) (UniProt Q9BYT3)",
    "assigned_class": "inactive"
  },
  {
    "compound": "O=C(Nc1nnc(-c2ccccc2)o1)c1cccc(S(=O)(=O)N2CCOCC2)c1",
    "target_desc": "Serine/threonine-protein kinase 33 (Homo sapiens) (UniProt Q9BYT3)",
    "assigned_class": "inactive"
  },
  {
    "compound": "COc1ccc(OC)c(NC(=O)COC(=O)Cc2ccsc2)c1",
    "target_desc": "Serine/threonine-protein kinase 33 (Homo sapiens) (UniProt Q9BYT3)",
    "assigned_class": "inactive"
  },
  {
    "compound": "Cc1ccc(S(=O)(=O)N2[C@@H](c3cccc4ccccc34)C(C(=O)O)=C[C@H]2C(C)(C)C)cc1",
    "target_desc": "Serine/threonine-protein kinase 33 (Homo sapiens) (UniProt Q9BYT3)",
    "assigned_class": "inactive"
  },
  {
    "compound": "Cc1ccccc1SCC(=O)OCC(=O)N1CC(=O)Nc2ccccc21",
    "target_desc": "Serine/threonine-protein kinase 33 (Homo sapiens) (UniProt Q9BYT3)",
    "assigned_class": "inactive"
  },
  {
    "compound": "O=C(COC(=O)CSc1ccccc1)Nc1ccc(F)cc1F",
    "target_desc": "Serine/threonine-protein kinase 33 (Homo sapiens) (UniProt Q9BYT3)",
    "assigned_class": "inactive"
  },
  {
    "compound": "N=c1c2c(-c3ccccc3)c(-c3ccccc3)n(Cc3ccccc3)c2ncn1CCCO",
    "target_desc": "Serine/threonine-protein kinase 33 (Homo sapiens) (UniProt Q9BYT3)",
    "assigned_class": "inactive"
  },
  {
    "compound": "CCCCCCSc1ccc(-c2nc3ccc(Cl)cn3c2NCc2ccccc2)cc1",
    "target_desc": "Serine/threonine-protein kinase 33 (Homo sapiens) (UniProt Q9BYT3)",
    "assigned_class": "inactive"
  },
  {
    "compound": "O=C(CSc1nccn1-c1cccc(F)c1)NC1CCCC1",
    "target_desc": "Serine/threonine-protein kinase 33 (Homo sapiens) (UniProt Q9BYT3)",
    "assigned_class": "inactive"
  },
  {
    "compound": "CCN(CC(=O)NCc1ccc(F)cc1)S(=O)(=O)c1ccc(Cl)s1",
    "target_desc": "Serine/threonine-protein kinase 33 (Homo sapiens) (UniProt Q9BYT3)",
    "assigned_class": "inactive"
  },
  {
    "compound": "CCOC(=O)COc1cc(O)c2c(=O)cc(-c3ccccc3)oc2c1",
    "target_desc": "Serine/threonine-protein kinase 33 (Homo sapiens) (UniProt Q9BYT3)",
    "assigned_class": "inactive"
  },
  {
    "compound": "O=C(NNS(=O)(=O)c1c(F)cc(F)c(Cl)c1F)C12CC3CC(CC(C3)C1)C2",
    "target_desc": "Serine/threonine-protein kinase 33 (Homo sapiens) (UniProt Q9BYT3)",
    "assigned_class": "inactive"
  }
]
